- Test system: HCT-116
- assay notes: Inhibitory concentration required to decrease cell viability in cell growth culture against colon carcinoma cells HCT116
- Format: functional, cell-based
- run conditions: Homo sapiens
Consider the following compounds and their measured log10 of IC50 readings.
reported property: log10 of IC50 (log10 of the value in µM)

- entry smiles: "Cc1c(CNc2ccc(Cl)c(Cl)c2)cnc2nc(N)nc(N)c12"
  reading: 1.46
- entry smiles: "COc1cc(N(C)Cc2cnc3nc(N)nc(N)c3c2C)cc(OC)c1OC"
  reading: 1.58
- entry smiles: "COc1cc(NCc2cnc3nc(N)nc(N)c3c2C)cc(OC)c1OC"
  reading: 1.86
- entry smiles: "Cc1c(CN(C)c2ccc(Cl)c(Cl)c2)cnc2nc(N)nc(N)c12"
  reading: 0.72
- entry smiles: "Cc1c(CN(C=O)c2ccc(Cl)c(Cl)c2)cnc2nc(N)nc(N)c12"
  reading: 1.20

###

Target protein (sequence): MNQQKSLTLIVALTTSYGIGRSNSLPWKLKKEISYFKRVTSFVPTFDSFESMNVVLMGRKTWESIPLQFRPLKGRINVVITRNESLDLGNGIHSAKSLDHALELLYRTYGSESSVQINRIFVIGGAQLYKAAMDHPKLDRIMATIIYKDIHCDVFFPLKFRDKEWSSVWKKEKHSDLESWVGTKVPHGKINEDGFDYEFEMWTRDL

- compound: "COc1cc(N(C=O)CC2=CNc3nc(N)nc(N)c3C2C)cc(OC)c1OC (stereo not given)"
  unit abbreviation: "nM"
  relation: ">"
  IC50: 2600
- compound: "Cc1c(CN(C=O)c2cc(Cl)c(Cl)c(Cl)c2)cnc2nc(N)nc(N)c12"
  unit abbreviation: "nM"
  relation: "="
  IC50: 520
- compound: "Cc1c(CNc2cc(Cl)c(Cl)c(Cl)c2)cnc2nc(N)nc(N)c12"
  unit abbreviation: "nM"
  relation: "="
  IC50: 63
- compound: "COc1cc(N(C=O)CC2CNc3nc(N)nc(N)c3C2C)cc(OC)c1OC (stereo not given)"
  unit abbreviation: "nM"
  relation: ">"
  IC50: 1200
- compound: "Cc1c(CNc2ccc(Cl)c(Cl)c2)cnc2nc(N)nc(N)c12"
  unit abbreviation: "nM"
  relation: "="
  IC50: 320

###

Consider the following compounds and their measured IC50 readings.
- study target: UniProt P00381
- Sequence (P00381 whole entry): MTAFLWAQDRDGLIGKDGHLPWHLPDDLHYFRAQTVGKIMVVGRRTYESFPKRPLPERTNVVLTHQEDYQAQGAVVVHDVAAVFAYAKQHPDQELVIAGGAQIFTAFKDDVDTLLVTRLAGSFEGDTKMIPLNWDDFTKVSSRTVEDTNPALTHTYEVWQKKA
- assay notes: Inhibitory concentration against Lactobacillus casei dihydrofolate reductase
- Parameters: species or system Lacticaseibacillus casei

- entry smiles: "COc1cc(N(C)Cc2cnc3nc(N)nc(N)c3c2C)cc(OC)c1OC"
  unit abbreviation: "nM"
  IC50: 200
- entry smiles: "COc1cc(NCc2cnc3nc(N)nc(N)c3c2C)cc(OC)c1OC"
  unit abbreviation: "nM"
  IC50: 22

###

- System: MCF7S
- assay notes: Inhibitory concentration required to decrease cell viability in cell growth culture against breast carcinoma cells MCF-7
- Assay type: functional, cell-based
- run conditions: Homo sapiens
Consider the following molecules and their measured IC50 readings.

- entry smiles: "Cc1c(CN(C)c2cc(Cl)c(Cl)c(Cl)c2)cnc2nc(N)nc(N)c12"
  IC50: "18.2 µM"
- entry smiles: "Cc1c(CN(C)c2ccc(Cl)c(Cl)c2)cnc2nc(N)nc(N)c12"
  IC50: "9.6 µM"
- entry smiles: "Cc1c(CN(C=O)c2ccc(Cl)c(Cl)c2)cnc2nc(N)nc(N)c12"
  IC50: "106 µM"
- entry smiles: "COc1cc(N(C)Cc2cnc3nc(N)nc(N)c3c2C)cc(OC)c1OC"
  IC50: "> 100 µM"
- entry smiles: "Cc1c(CNc2cc(Cl)c(Cl)c(Cl)c2)cnc2nc(N)nc(N)c12"
  IC50: "> 100 µM"
- entry smiles: "COc1cc(NCc2cnc3nc(N)nc(N)c3c2C)cc(OC)c1OC"
  IC50: "> 100 µM"
- entry smiles: "Cc1c(CNc2ccc(Cl)c(Cl)c2)cnc2nc(N)nc(N)c12"
  IC50: "94.5 µM"
- entry smiles: "COc1cc(N(C=O)Cc2cnc3nc(N)nc(N)c3c2C)cc(OC)c1OC"
  IC50: "> 100 µM"

###

The following compounds each carry a recorded IC50 for Dihydrofolate reductase (Pneumocystis carinii).

- compound: "Cc1c(CN(C)c2ccc(Cl)c(Cl)c2)cnc2nc(N)nc(N)c12"
  study target: "Dihydrofolate reductase (Pneumocystis carinii)"
  IC50: "100 nM"
- compound: "Cc1c(CN(C)c2cc(Cl)c(Cl)c(Cl)c2)cnc2nc(N)nc(N)c12"
  study target: "Dihydrofolate reductase (Pneumocystis carinii)"
  IC50: "105 nM"
- compound: "COc1cc(NCC2CNc3nc(N)nc(N)c3C2C)cc(OC)c1OC (stereo not given)"
  study target: "Dihydrofolate reductase (Pneumocystis carinii)"
  IC50: "> 3700 nM"
- compound: "Cc1c(CN(C=O)c2ccc(Cl)c(Cl)c2)cnc2nc(N)nc(N)c12"
  study target: "Dihydrofolate reductase (Pneumocystis carinii)"
  IC50: "510 nM"
- compound: "COc1cc(N(C=O)Cc2cnc3nc(N)nc(N)c3c2C)cc(OC)c1OC"
  study target: "Dihydrofolate reductase (Pneumocystis carinii)"
  IC50: "550 nM"

###

- System: Lacticaseibacillus casei
- assay notes: Inhibitory concentration against Lactobacillus casei
- Type: functional, organism-based
reported property: IC50 (nM)

- molecule: "COc1cc(NCc2ccc3nc(N)nc(N)c3c2C)cc(OC)c1OC [TRIMETREXATE]"
  study target: "Lacticaseibacillus casei"
  unit abbreviation: "nM"
  reading: 27

###

- study target: Bifunctional dihydrofolate reductase-thymidylate synthase (Toxoplasma gondii, UniProt Q07422)
- Sequence (Q07422 whole entry): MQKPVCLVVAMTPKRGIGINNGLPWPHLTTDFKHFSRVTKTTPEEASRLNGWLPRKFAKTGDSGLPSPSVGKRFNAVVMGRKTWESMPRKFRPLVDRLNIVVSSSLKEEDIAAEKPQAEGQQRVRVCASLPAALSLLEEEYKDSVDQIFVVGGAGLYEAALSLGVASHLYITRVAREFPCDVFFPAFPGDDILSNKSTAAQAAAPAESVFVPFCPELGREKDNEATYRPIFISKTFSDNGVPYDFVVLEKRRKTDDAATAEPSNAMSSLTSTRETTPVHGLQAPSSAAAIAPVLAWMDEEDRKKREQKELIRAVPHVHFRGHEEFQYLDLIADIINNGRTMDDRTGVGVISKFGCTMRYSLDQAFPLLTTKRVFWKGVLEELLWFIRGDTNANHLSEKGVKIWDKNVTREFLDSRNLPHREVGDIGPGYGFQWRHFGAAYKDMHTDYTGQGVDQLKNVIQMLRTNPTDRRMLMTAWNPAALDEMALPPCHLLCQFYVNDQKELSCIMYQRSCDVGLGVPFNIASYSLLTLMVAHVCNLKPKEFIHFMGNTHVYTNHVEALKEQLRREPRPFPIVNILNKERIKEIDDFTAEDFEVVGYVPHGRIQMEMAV
- assay notes: Inhibition of Toxoplasma gondii dihydrofolate reductase
reported property: IC50

- entry smiles: "Cc1c(CNc2ccc(Cl)c(Cl)c2)cnc2nc(N)nc(N)c12"
  reported property: "IC50"
  reading: "28 nM"
- entry smiles: "Cc1c(CN(C=O)c2ccc(Cl)c(Cl)c2)cnc2nc(N)nc(N)c12"
  reported property: "IC50"
  reading: "83 nM"
- entry smiles: "Cc1c(CN(C)c2ccc(Cl)c(Cl)c2)cnc2nc(N)nc(N)c12"
  reported property: "IC50"
  reading: "27 nM"
- entry smiles: "COc1cc(N(C=O)Cc2cnc3nc(N)nc(N)c3c2C)cc(OC)c1OC"
  reported property: "IC50"
  reading: "13 nM"
- entry smiles: "Cc1c(CNc2cc(Cl)c(Cl)c(Cl)c2)cnc2nc(N)nc(N)c12"
  reported property: "IC50"
  reading: "12 nM"
- entry smiles: "Cc1c(CN(C)c2cc(Cl)c(Cl)c(Cl)c2)cnc2nc(N)nc(N)c12"
  reported property: "IC50"
  reading: "38.1 nM"
- entry smiles: "Cc1c(CN(C=O)c2cc(Cl)c(Cl)c(Cl)c2)cnc2nc(N)nc(N)c12"
  reported property: "IC50"
  reading: "94 nM"

###

Consider the following molecules and their measured pIC50 readings.
Sequence of the target: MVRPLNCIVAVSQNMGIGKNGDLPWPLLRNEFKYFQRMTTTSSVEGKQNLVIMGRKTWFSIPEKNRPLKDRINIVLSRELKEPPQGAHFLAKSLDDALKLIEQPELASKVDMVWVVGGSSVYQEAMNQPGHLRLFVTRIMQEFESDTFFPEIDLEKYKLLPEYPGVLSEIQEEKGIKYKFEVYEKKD
pIC50: −log10 of the molar value.

- molecule: "COc1cc(N(C=O)CC2CNc3nc(N)nc(N)c3C2C)cc(OC)c1OC (stereo unspecified)"
  relation: "<"
  pIC50: 5.92
- molecule: "COc1cc(NCc2cnc3nc(N)nc(N)c3c2C)cc(OC)c1OC"
  relation: "="
  pIC50: 8.68
- molecule: "Cc1c(CN(C=O)c2cc(Cl)c(Cl)c(Cl)c2)cnc2nc(N)nc(N)c12"
  relation: "="
  pIC50: 6.60
- molecule: "Cc1c(CN(C)c2ccc(Cl)c(Cl)c2)cnc2nc(N)nc(N)c12"
  relation: "="
  pIC50: 7.38
- molecule: "Cc1c(CN(C)c2cc(Cl)c(Cl)c(Cl)c2)cnc2nc(N)nc(N)c12"
  relation: "="
  pIC50: 7.44
- molecule: "COc1cc(N(C)Cc2cnc3nc(N)nc(N)c3c2C)cc(OC)c1OC"
  relation: "="
  pIC50: 8.12
- molecule: "COc1cc(N(C=O)Cc2cnc3nc(N)nc(N)c3c2C)cc(OC)c1OC"
  relation: "="
  pIC50: 6.96
- molecule: "Cc1c(CNc2ccc(Cl)c(Cl)c2)cnc2nc(N)nc(N)c12"
  relation: "="
  pIC50: 7.28
- molecule: "COc1cc(NCC2CNc3nc(N)nc(N)c3C2C)cc(OC)c1OC (stereo unspecified)"
  relation: "="
  pIC50: 5.43
- molecule: "COc1cc(N(C=O)CC2=CNc3nc(N)nc(N)c3C2C)cc(OC)c1OC (stereo unspecified)"
  relation: "<"
  pIC50: 5.59
- molecule: "Cc1c(CNc2cc(Cl)c(Cl)c(Cl)c2)cnc2nc(N)nc(N)c12"
  relation: "="
  pIC50: 7.48
